meta.source: PubChem BioAssay (NCI)

System: DU-145 prostate
Procedure summary: NCI tumour cell line growth inhibition, 48 h; in the data active = GI50 below about 0.43 µM; inactive = the rest
Classes used: t for active, f for inactive

[[record]]
molecule = "Cc1cn(Cc2ccccc2CCl)c(=O)n(Cc2ccccc2CCl)c1=O"
assay_system = "DU-145 prostate"
class = "f"

[[record]]
molecule = "CCCCN(CCCC)CCC(O)c1cc2ccc(C(F)(F)F)cc2c2cc(C(F)(F)F)ccc12 (centres undefined)"
assay_system = "DU-145 prostate"
class = "f"

[[record]]
molecule = "CNC(=O)c1cncc(/C=C/c2c(Cl)cccc2Cl)c1"
assay_system = "DU-145 prostate"
class = "f"

[[record]]
molecule = "CN(C)c1ncnc2c1ccn2C1OC(CO)C(O)C1O (centres undefined)"
assay_system = "DU-145 prostate"
class = "t"

[[record]]
molecule = "c1ccc(/C(=N\\Nc2ccc3ccccc3n2)c2ccccn2)cc1"
assay_system = "DU-145 prostate"
class = "f"

[[record]]
molecule = "CC(=O)n1c(-c2ccc(Cl)c(Cl)c2)cn(-c2ccc(Cl)cc2)c1=O"
assay_system = "DU-145 prostate"
class = "f"

[[record]]
molecule = "O=c1[nH]nc(-c2ccccc2)c2c(-c3ccccc3)onc12"
assay_system = "DU-145 prostate"
class = "f"

[[record]]
molecule = "O=C(CN1C(=O)S/C(=C\\C(Cl)=C\\c2ccccc2)C1=O)NCCCn1ccnc1"
assay_system = "DU-145 prostate"
class = "f"

[[record]]
molecule = "CCc1c2c(nc3ccc(OCc4ccc(B5OC(C)(C)C(C)(C)O5)cc4)cc13)-c1cc3c(c(=O)n1C2)COC(=O)[C@]3(O)CC"
assay_system = "DU-145 prostate"
class = "t"

[[record]]
molecule = "Nc1cc(-c2ccccc2)n(C(=O)Nc2ccc(Oc3ccccc3)cc2)n1"
assay_system = "DU-145 prostate"
class = "f"

[[record]]
molecule = "COc1ccc2c(c1)C=C1CSCC3=Cc4cc(OC)ccc4OC13O2"
assay_system = "DU-145 prostate"
class = "t"

[[record]]
molecule = "Cc1ccc(S(=O)(=O)Nc2cc(Sc3ccccc3)c(O)c3ccccc23)cc1"
assay_system = "DU-145 prostate"
class = "f"

[[record]]
molecule = "O=CN1N=C(c2ccc(Nc3ccnc4cc(Cl)ccc34)cc2)CC1c1ccc(Cl)cc1 (centres undefined)"
assay_system = "DU-145 prostate"
class = "f"

[[record]]
molecule = "O=C1c2ccn(CCCCN(CCO)CCO)c2C(=O)c2c1c(O)c1ccccc1c2O"
assay_system = "DU-145 prostate"
class = "f"


###

Test system: HOP-62 NSCLC
Procedure summary: NCI tumour cell line growth inhibition, 48 h
Listed here: items and their measured TGI.
Readout kind: TGI

[[record]]
compound = "CNC(=O)c1cncc(/C=C/c2c(Cl)cccc2Cl)c1"
data_value = "> 25 µM"

[[record]]
compound = "Clc1ccc(/C=C/c2nc(Cl)c(-c3ccc(Cl)cc3)c(Cl)n2)cc1"
data_value = "> 100 µM"

[[record]]
compound = "CC(=O)Nc1nnc(S(=O)(=O)NC(=S)Nc2ccc(Cl)cc2)s1"
data_value = "> 100 µM"

[[record]]
compound = "COC(=O)C1C(/C=C/c2ccoc2)ON2CCC[C@@H]12 (stereo partly specified)"
data_value = "> 100 µM"

[[record]]
compound = "Nc1ccccc1C#C/C=C\\C#Cc1ccccc1F"
data_value = "20.8 µM"

[[record]]
compound = "S=C(Nc1cccc(C2(N3CCCCC3)CCCCC2)c1)Nc1cccc(C2(N3CCCCC3)CCCCC2)c1"
data_value = "> 100 µM"


###

Test system: SK-MEL-2 melanoma
Procedure summary: NCI tumour cell line growth inhibition, 48 h
*1 amine or outer side, *2 acyl side, *3 side chain or, on linkers, in order; H or OH if unused. Where a SMILES comes first, the peptide text is derived from it. [ ]: non-standard residue; d: D form. The star is where a group is joined. X31 = CC(=O)N(C)SCC(N[*:1])C(=O)[*:2]; Fmoc = O=C(OCC1c2ccccc2-c2ccccc21)*; For = O=C*
Readout kind: TGI (µM)

[[record]]
molecule = "CC(=O)/C(=C(/Br)I)c1ccccc1"
assay_system = "SK-MEL-2 melanoma"
value_qualifier = "="
data_value = 15.7

[[record]]
molecule = "CCOP(=O)(OCC)C(=C1C=C(C(C)(C)C)C(=O)C(C(C)(C)C)=C1)P(=O)(OCC)OCC"
assay_system = "SK-MEL-2 melanoma"
value_qualifier = ">"
data_value = 10

[[record]]
molecule = "O=c1c(Sc2ncccn2)c(Sc2ncccn2)cnn1CCl"
assay_system = "SK-MEL-2 melanoma"
value_qualifier = "="
data_value = 5.88

[[record]]
molecule = "O=C(Nc1ccc(S(=O)(=O)Nc2ncccn2)cc1)c1c2ccccc2nc2ccccc12"
assay_system = "SK-MEL-2 melanoma"
value_qualifier = ">"
data_value = 100

[[record]]
molecule = "COc1ccc2c(c1)C=C1CSCC3=Cc4cc(OC)ccc4OC13O2"
assay_system = "SK-MEL-2 melanoma"
value_qualifier = ">"
data_value = 100

[[record]]
molecule = "Cc1cc(C)nc(NS(=O)(=O)c2ccc(NC(=O)c3cccc4c(N)c5ccccc5nc34)cc2)n1"
assay_system = "SK-MEL-2 melanoma"
value_qualifier = ">"
data_value = 100

[[record]]
molecule = "Cc1ccc(F)c2c(=O)cc(-c3ccccc3)[nH]c12"
assay_system = "SK-MEL-2 melanoma"
value_qualifier = ">"
data_value = 100

[[record]]
molecule = "O=C1NN=CN2C(=O)CCC12 (centres undefined)"
assay_system = "SK-MEL-2 melanoma"
value_qualifier = ">"
data_value = 100

[[record]]
molecule = "Clc1ccc(/C=C/c2nc(Cl)c(-c3ccc(Cl)cc3)c(Cl)n2)cc1"
assay_system = "SK-MEL-2 melanoma"
value_qualifier = ">"
data_value = 100

[[record]]
molecule = "OC1c2ccccc2C2C(O)c3ccccc3C12 (centres undefined)"
assay_system = "SK-MEL-2 melanoma"
value_qualifier = ">"
data_value = 100

[[record]]
molecule = "COc1ccc(C2C(Cl)C(=O)N2NC(=O)c2ccccc2O)cc1OC (centres undefined)"
assay_system = "SK-MEL-2 melanoma"
value_qualifier = ">"
data_value = 100

[[record]]
molecule = "S=C(Nc1cccc(C2(N3CCCCC3)CCCCC2)c1)Nc1cccc(C2(N3CCCCC3)CCCCC2)c1"
assay_system = "SK-MEL-2 melanoma"
value_qualifier = "="
data_value = 33.3

[[record]]
molecule = "O=C(O)CCc1nc2cc3ccccc3cc2[nH]c1=O"
assay_system = "SK-MEL-2 melanoma"
value_qualifier = ">"
data_value = 100

[[record]]
molecule = "CC(=O)N(C)SCC(NC(=O)C(Cc1ccccc1)NC(=O)OCC1c2ccccc2-c2ccccc21)C(=O)NC(Cc1ccccc1)C(=O)NC(Cc1cn(C=O)c2ccccc12)C(=O)NC(CCCCNC(=O)OCC1c2ccccc2-c2ccccc21)C(=O)NC(C(=O)NC(CSN(C)C(C)=O)C(=O)NC(C(N)=O)C(C)O)C(C)O (centres undefined) (Fmoc-F[X31]FW(For)K(Fmoc)T[X31]T-NH2; configuration not given here)"
assay_system = "SK-MEL-2 melanoma"
value_qualifier = ">"
data_value = 100

[[record]]
molecule = "NCCSC(C[N+](=O)[O-])c1ccccc1Cl (centres undefined)"
assay_system = "SK-MEL-2 melanoma"
value_qualifier = "="
data_value = 51.5

[[record]]
molecule = "CCOC(=O)Oc1ccc2c(c1)c(=O)c1c(NCCCN(CC)CC)ccc3nnn2c31"
assay_system = "SK-MEL-2 melanoma"
value_qualifier = "="
data_value = 30

[[record]]
molecule = "Cc1ccc(-n2cc(-c3ccc(Cl)cc3)c(C#N)c2N)cc1"
assay_system = "SK-MEL-2 melanoma"
value_qualifier = "="
data_value = 29.4

[[record]]
molecule = "Cc1ccc(-n2cc(-c3ccc(Cl)cc3)c3c2N=CN2NC(c4cccs4)=NC32)cc1 (centres undefined)"
assay_system = "SK-MEL-2 melanoma"
value_qualifier = "="
data_value = 33

[[record]]
molecule = "CC1CC(=O)c2c(ccc3c2C(=O)c2cccc(O)c2C3=O)C1 (centres undefined)"
assay_system = "SK-MEL-2 melanoma"
value_qualifier = "="
data_value = 22.6


###

Tested on: UACC-257 melanoma
Procedure summary: NCI tumour cell line growth inhibition, 48 h
Readout kind: TGI

[[record]]
compound = "CC(=O)Oc1cc(S(=O)(=O)Nc2n[nH]c(N)n2)c(S)cc1Cl"
readout_kind = "TGI"
data_value = "> 100 µM"

[[record]]
compound = "Nc1ccccc1C#C/C=C\\C#Cc1ccccc1F"
readout_kind = "TGI"
data_value = "47.5 µM"

[[record]]
compound = "Cc1ccc(Nc2cn(COCc3ccccc3)c(=O)[nH]c2=O)cc1"
readout_kind = "TGI"
data_value = "> 100 µM"

[[record]]
compound = "CN(C)N=Nc1nn(C(=O)Nc2ccc(Cc3ccccc3)cc2)c2ccccc12"
readout_kind = "TGI"
data_value = "> 100 µM"

[[record]]
compound = "CC1(C)N=C(Oc2ccccc2)n2nccc2N1"
readout_kind = "TGI"
data_value = "> 100 µM"

[[record]]
compound = "C=C(C)C(=O)O[C@H]1CC2=CC(CC(C)=C[C@H]3OC(=O)C(=C)C13)OC2=O (stereo partly specified)"
readout_kind = "TGI"
data_value = "96.3 µM"

